In this section we review reported growth values for a set of compounds.
# Tested on: HL-60(TB) leukemia
# protocol summary: NCI-60 one-dose screen, 48 h (100 = growth as untreated, 0 = no growth, -100 = all killed)
# stated conditions: 10 µM unless noted
The panel holds about 83,000 compounds, 20% with a hit somewhere; the sample as a whole holds those more often. Activity calls are given as the source filed them. The calls were made as follows: active = growth percent below 10; inactive = the rest.

Below, each entry is followed by its recorded growth result.
- Fc1ccc(-c2nnc(-c3c(-c4ccc(F)cc4)nc4ccccn34)o2)cc1: 103% (inactive)
- COC(=O)c1c2c(c(C)[n+]([O-])c1C)C(=O)C=C(NCc1ccc(F)c(F)c1)C2=O: -24% (active)
- NS(=O)(=O)c1cnccc1-n1ccc(=O)c(S(N)(=O)=O)c1: 55.9% (inactive)
- COc1ccc(-c2nc3c(c(C)nn3-c3ccc(F)cc3)c(=O)[nH]2)cc1: 70% (inactive)

Next compound, growth to be filled in.
Memo: CCCCNC(=O)NS(=O)(=O)c1ccc(N2N=C(c3ccc(C)cc3C)CC2c2ccc(N(C)C)cc2)cc1 (stereo not given) , reported growth: 14.4% (inactive)
